Measured pIC50 by item
ASSAYED SYSTEM: human 11β-HSD1 enzyme (Homo sapiens)
Construct: stably transfected with a construct containing the full-length gene coding for the human 11β-HSD1 enzyme; HEK293/11β-HSD1)
Sequence (P28845 whole entry): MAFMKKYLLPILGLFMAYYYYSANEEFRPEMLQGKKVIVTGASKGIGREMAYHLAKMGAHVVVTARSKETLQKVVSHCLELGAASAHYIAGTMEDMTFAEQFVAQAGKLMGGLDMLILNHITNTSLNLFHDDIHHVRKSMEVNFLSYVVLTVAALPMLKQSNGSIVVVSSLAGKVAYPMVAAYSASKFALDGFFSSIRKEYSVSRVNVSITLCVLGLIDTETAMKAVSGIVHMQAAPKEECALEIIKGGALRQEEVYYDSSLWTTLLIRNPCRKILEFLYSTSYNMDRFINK
PROTOCOL DETAILS: Cellular in vitro 11β-HSD1 enzyme inhibition assay (SPA, HEK293/11β-HSD1 cells)
CONDITION NOTES: HEK293 cells stably transfected with human 11β-HSD1; 22 nM tritiated cortisone, 2 hours
pIC50: −log10 of the molar value.

>  <COMPOUND>
O=C(c1cc(C2CCOCC2)sn1)N1CCC[C@@H]2CCCC[C@@H]21

>  <MEASUREMENT QUALIFIER>
=

>  <pIC50>
7.21

$$$$
>  <COMPOUND>
O=C1c2ccccc2C(=O)N1c1cc(C(=O)N2CCC[C@@H]3CCCC[C@@H]32)ns1

>  <MEASUREMENT QUALIFIER>
≥

>  <pIC50>
6.30

$$$$
>  <COMPOUND>
O=C(c1cc(-c2cn[nH]c2)sn1)N1CCCC1c1ccc(F)cc1 (stereo not drawn)

>  <MEASUREMENT QUALIFIER>
≥

>  <pIC50>
6.30

$$$$
>  <COMPOUND>
O=C(c1cc(-c2cn[nH]c2)sn1)N1CCC[C@@H]2CCCC[C@@H]21

>  <MEASUREMENT QUALIFIER>
=

>  <pIC50>
7.74

$$$$
>  <COMPOUND>
O=C(c1cc(-c2ccccc2)sn1)N1CCCC2CCCCC21 (stereo not drawn)

>  <MEASUREMENT QUALIFIER>
≥

>  <pIC50>
6.30

$$$$
>  <COMPOUND>
O=C(c1cnsc1-c1ccccc1)N1CCCC2CCCCC21 (stereo not drawn)

>  <MEASUREMENT QUALIFIER>
=

>  <pIC50>
7.23

$$$$
